Assay: Urinary recovery of thienamycin class compound in the mouse
Assay type: in vivo
Conditions: urine, po, 10 mg/kg, 1 hour, 10 mg/kg oral plus inhibitor (40 mg/kg SC + 40 mg/kg per os)
Experimental: An in vivo assay is conducted using 34 Charles River CD female mice. Seventeen of the mice are administered 40 mg/kg of the inhibitor 7-(L-2-amino-2-carboxyethylthio)-2-(2,2-dimethylcyclopropanecarboxamido)-2-heptenoic acid subcutaneously, and an additional 40 mg/kg per os. Immediately thereafter they and an additional 17 mice are administered 10 mg/kg of the thienamycin class compoud (±)-[5R,6S]-2-ethylthio-6[(R)-1-hydroxyethyl]-pen-2-em-3-sodiocarboxylate by oral gavage. […]
value kind: dose excreted at 1 h (%)

• CCSC1=C(C(=O)O)N2C(=O)[C@H]([C@@H](C)O)[C@H]2S1 (relative stereo) = 1.5

----------
Experiment: Plasma level of thienamycin class compound in the mouse
Assay type: in vivo
Details: po, 10 mg/kg, 90 minutes, 10 mg/kg oral plus inhibitor (40 mg/kg SC + 40 mg/kg per os)
value kind: concentration at […]

- CCSC1=C(C(=O)O)N2C(=O)[C@H]([C@@H](C)O)[C@H]2S1 (relative stereo) [Thienamycin Class Compound]: 3800 µg/mL

----------
Test: Urinary recovery of thienamycin class compound in the mouse
Assay type: in vivo
Settings: urine, po, 10 mg/kg, 3 hours, compound alone, 10 mg/kg oral
value kind: dose excreted at 3 h (%)

* CCSC1=C(C(=O)O)N2C(=O)[C@H]([C@@H](C)O)[C@H]2S1 (relative stereo) [Thienamycin Class Compound] | 0.6

----------
Experiment: Plasma level of thienamycin class compound in the mouse
Format: in vivo
Settings: po, 10 mg/kg, 60 minutes, 10 mg/kg oral plus inhibitor (40 mg/kg SC + 40 mg/kg per os)
value kind: concentration at 1 h (µg/mL)

- CCSC1=C(C(=O)O)N2C(=O)[C@H]([C@@H](C)O)[C@H]2S1 (relative stereo): 6100

----------
Experiment: Plasma level of thienamycin class compound in the mouse
Type: in vivo
Conditions: po, 10 mg/kg, 10 minutes, 10 mg/kg oral plus inhibitor (40 mg/kg SC + 40 mg/kg per os)
value kind: concentration at 10 min

• CCSC1=C(C(=O)O)N2C(=O)[C@H]([C@@H](C)O)[C@H]2S1 (relative stereo) [Thienamycin Class Compound] = 2600 µg/mL

----------
Test: Urinary recovery of thienamycin class compound in the mouse
Assay type: in vivo
Conditions: urine, po, 10 mg/kg, 3 hours, 10 mg/kg oral plus inhibitor (40 mg/kg SC + 40 mg/kg per os)
value kind: dose excreted at 3 h (%)

• CCSC1=C(C(=O)O)N2C(=O)[C@H]([C@@H](C)O)[C@H]2S1 (relative stereo) = 2.3

----------
Biological target: renal dipeptidase (E.C.3.4.13.11) (Sus scrofa)
Construct: solubilized preparation of dipeptidase isolated from hog kidneys; from tissue; host or cells: hog kidney
Sequence (P22412 17-409): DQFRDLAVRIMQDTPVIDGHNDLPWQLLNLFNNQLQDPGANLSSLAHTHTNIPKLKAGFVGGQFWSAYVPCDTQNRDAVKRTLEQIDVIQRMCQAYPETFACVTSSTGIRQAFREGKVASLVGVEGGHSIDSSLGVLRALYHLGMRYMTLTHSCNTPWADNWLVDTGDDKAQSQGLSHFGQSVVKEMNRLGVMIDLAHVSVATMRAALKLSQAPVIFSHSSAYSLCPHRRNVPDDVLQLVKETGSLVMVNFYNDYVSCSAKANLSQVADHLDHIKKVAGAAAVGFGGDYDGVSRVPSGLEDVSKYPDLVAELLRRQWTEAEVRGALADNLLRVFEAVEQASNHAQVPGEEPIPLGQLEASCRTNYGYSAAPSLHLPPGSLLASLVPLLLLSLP
Assay: Inhibition of glycyldehydrophenylalanine (GDP) hydrolysis by renal dipeptidase in vitro
Type: biochemical, pig (hog)
Details: concentration producing 50% inhibition; substrate GDP 0.05 mM; pH 7.1; 37° C.; read-out: Ki
pKi: −log10 of the molar value.
Is pKi at least 5? Then true. If not, false.

* C/C=C(\NC(=O)C1CCCC1)C(=O)O | false
* C/C=C(\NC(=O)CCCC1CCCCC1)C(=O)O | false
* C/C=C(\NC(=O)C1CC1C)C(=O)O (stereo not shown) | true
* C/C=C(\NC(=O)CC1CCC1)C(=O)O | true
* CCCCCCCCCC/C=C(\NC(=O)C1CC1(C)C)C(=O)O (stereo not shown) | true
* CC(C)(C)C/C=C(\NC(=O)C1CC1(C)C)C(=O)O (stereo not shown) | true
* C/C=C(\NC(=O)CCCCCCC)C(=O)O | false
* CC(C)/C=C(\NC(=O)C1CC1(C)C)C(=O)O (stereo not shown) | true
